These measurements were taken from patent US20230233569A1.

- measured on: KRAS G12S (Homo sapiens, UniProt P01116+P62937, G12S)
- Sequence (P01116 1-169 isoform P01116-2 G12S limits assumed): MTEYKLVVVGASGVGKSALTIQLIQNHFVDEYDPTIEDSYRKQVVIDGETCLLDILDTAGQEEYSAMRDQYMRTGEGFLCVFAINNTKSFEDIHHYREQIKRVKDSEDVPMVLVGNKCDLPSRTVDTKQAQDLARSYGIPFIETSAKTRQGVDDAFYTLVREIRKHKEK
- Sequence (P62937 whole entry): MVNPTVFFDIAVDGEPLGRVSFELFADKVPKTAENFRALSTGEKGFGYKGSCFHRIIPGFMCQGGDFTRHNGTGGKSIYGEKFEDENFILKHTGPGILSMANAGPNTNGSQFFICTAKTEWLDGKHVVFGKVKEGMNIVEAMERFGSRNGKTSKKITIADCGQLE
- method description: Disruption of BRAF RBD interaction with Ras (FRET / MOA assay, with Cyclophilin A)
- Format: biochemical
- particulars: read-out: KRAS G12S FRET data, IC50
pIC50: −log10 of the molar value.
property measured: pIC50

CCn1c(-c2cccnc2[C@H](C)OC)c2c3cc(ccc31)-c1cccc(c1)C[C@H](NC(=O)[C@H](C(C)C)N(C)C(=O)[C@@H]1CCN(C(=O)C#CC(C)(C)N3CCC3)C1)C(=O)N1CCC[C@H](N1)C(=O)OCC(C)(C)C2 = 5.00 to 6.00

Which pIC50 value belongs to CCn1c(-c2cccnc2[C@H](C)OC)c2c3cc(ccc31)-c1csc(n1)C[C@H](NC(=O)[C@H](C(C)C)N(C)C(=O)N1CC([C@@H](C)NC)C1)C(=O)N1CCC[C@H](N1)C(=O)OCC(C)(C)C2 (atropisomer, axis not shown) ? 6.00 to 7.00

* * *

- measured on: NRAS Q61K (Homo sapiens, UniProt P01111+P62937, Q61K)
- Sequence (P01111 whole entry Q61K): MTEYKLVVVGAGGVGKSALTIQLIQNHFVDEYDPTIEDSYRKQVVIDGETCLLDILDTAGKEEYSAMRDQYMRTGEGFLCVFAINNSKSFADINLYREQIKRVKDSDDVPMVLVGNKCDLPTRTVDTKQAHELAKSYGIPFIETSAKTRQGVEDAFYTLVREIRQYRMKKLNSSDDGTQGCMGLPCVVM
- Sequence (P62937 whole entry): as the sequence (P62937 whole entry) above
- method description: Disruption of BRAF RBD interaction with Ras (FRET / MOA assay, with Cyclophilin A)
- Assay type: biochemical
- particulars: NRAS Q61K; read-out: NRAS Q61K FRET data IC50
pIC50: −log10 of the molar value.
property measured: pIC50

Which measured pIC50 value corresponds to CCn1c(-c2cccnc2[C@H](C)OC)c2c3cc(ccc31)-c1csc(n1)C[C@H](NC(=O)[C@H](C(C)C)N(C)C(=O)N1CCN(C(=O)C3COC3)CC1)C(=O)N1CCC[C@H](N1)C(=O)OCC(C)(C)C2 (atropisomer, axis not shown) ? 7.00 to 8.00

I'd like to know its pIC50. The compound in question is CCn1c(-c2cc(N3CCN(C)CC3)cnc2[C@H](C)OC)c2c3cc(ccc31)-c1csc(n1)C[C@H](NC(=O)[C@H](C(C)C)N(C)C(=O)N1CCOCC1)C(=O)N1CCC[C@H](N1)C(=O)OCC(C)(C)C2 (atropisomer, axis not shown) 7.00 to 8.00

What pIC50 value was documented for this compound, C=CC(=O)N(C)[C@H]1CN(C(=O)N(C)[C@H](C(=O)N[C@H]2Cc3nc(cs3)-c3ccc4c(c3)c(c(-c3cccnc3[C@H](C)OC)n4CC)CC(C)(C)COC(=O)C3CCCN(N3)C2=O)C(C)C)C[C@@H]1F (some centres unmarked) ? 6.00 to 7.00

Form field: reported pIC50 of C=CC(=O)N1CC(OC[C@H](C(=O)N[C@H]2Cc3cc(F)cc(c3)-c3ccc4c(c3)c(c(-c3cccnc3[C@H](C)OC)n4CC)CC(C)(C)COC(=O)[C@@H]3CCCN(N3)C2=O)C(C)C)C1 (atropisomer, axis not shown) 5.00 to 6.00

Given CCn1c(-c2cccnc2[C@H](C)OC)c2c3cc(ccc31)-c1csc(n1)C[C@H](NC(=O)[C@H](C(C)C)N(C)C(=O)N1CC(C(C)(C)O)C1)C(=O)N1CCC[C@H](N1)C(=O)OCC(C)(C)C2 (atropisomer, axis not shown) , state its recorded pIC50. 7.00 to 8.00

Fill in: pIC50 of "CCn1c(-c2cccnc2[C@H](C)OC)c2c3cc(ccc31)-c1csc(n1)C[C@H](NC(=O)[C@H](C(C)C)N(C)C(=O)N1C3CC1CS(=O)(=O)C3)C(=O)N1CCC[C@H](N1)C(=O)OCC(C)(C)C2" is ___ 6.00 to 7.00

Name the reported pIC50 value associated with the compound "CCn1c(-c2cccnc2[C@H](C)OC)c2c3cc(ccc31)-c1csc(n1)C[C@H](NC(=O)[C@H](C(C)C)N(C)C(=O)N1CCN(C)CC1)C(=O)N1CCC[C@H](N1)C(=O)OCC(C)(C)C2" 6.00 to 7.00

Query: pIC50; subject: "C=CC(=O)N1CC[C@H](C(=O)N(C)[C@H](C(=O)N[C@H]2Cc3cc(O)cc(c3)-c3ccc4c(c3)c(c(-c3cnccc3[C@H](C)OC)n4CC)CC(C)(C)COC(=O)[C@@H]3CCCN(N3)C2=O)C(C)C)C1" 6.00 to 7.00
